Test system: UO-31
Assay: NCI tumour cell line growth inhibition, 48 h
Calls of active or inactive are those of the source. Rule as the data show it: active = GI50 up to about 1.1 µM and inactive = higher.
Choose the fitting class; nothing outside 1 for active, 0 for inactive is accepted.

Example results:
O=c1cc(NNc2ccccc2F)[nH]c(=O)[nH]1 = 0
COc1ccc(/N=c2/[nH]c(N)c(C(=O)c3ccc(OC)cc3)s2)cc1 = 1
CC(=O)NN/C=N/C(C#N)=C(\N)C#N = 0

Given c1ccc2c3c([nH]c2c1)C1CCCN1CC3 (stereo unspecified) , state the outcome it received in this test.
0

Note, next up: CN(NC(=O)c1cccs1)C1=NCCN1
0

Note, next up: CC(C)CC(NP(=O)(O)OC1OC(C)C(O)C(O)C1O)C(=O)NC(Cc1c[nH]c2ccccc12)C(=O)O (stereo unspecified)
0

Where these numbers come from: ChEMBL document CHEMBL1201862
